# System: DERL-7 (IL-2 2.5 ng/mL)
# TEST: percent inhibition of viability; higher = more inhibition
# TEST CONDITIONS: 72 h; 1000 nM
Measured percent inhibition of viability accompanies every entry in the list below.
# number only, unit % dropped from output

For COc1cc(Nc2c(C#N)cnc3cc(OCCCN4CCN(C)CC4)c(OC)cc23)c(Cl)cc1Cl [Bosutinib] (max concentration tested 10000 nM) the compound record lists percent inhibition of viability as 37.4

Entry under test: COc1cc2c(N3CCN(C(=O)Nc4ccc(OC(C)C)cc4)CC3)ncnc2cc1OCCCN1CCCCC1 [Tandutinib] (max concentration tested 1000 nM) . Its percent inhibition of viability was -0.71

The recorded percent inhibition of viability for COc1cc2c(cc1-c1c(C)noc1C)ncc1[nH]c(=O)n([C@H](C)c3ccccn3)c12 [I-BET151] (max concentration tested 10000 nM) is 81.5

* * *

# Tested on: KHYG-1 (IL-2 2.5 ng/mL)
# TEST: percent inhibition of viability; higher = more inhibition
# TEST CONDITIONS: 72 h; 100 nM
As shown below, each of these compounds has a reported percent inhibition of viability value.
Number only, in %; omit the unit.

Example cases with answers are listed next.
>>> print(df.to_string())
                                   compound                   property_label  quantitative_result
0  O=C(c1cc(Cc2n[nH]c(=O)c3ccccc23)ccc1F)N1CCN(C(=O)C2CC2)CC1 [Olaparib] (max concentration tested 10000 nM)  percent inhibition of viability                 0.38
1  COc1cc(N2CCN(C)CC2)ccc1Nc1nccc(-c2cn(C)c3cnccc23)n1 [AZ191] (max concentration tested 10000 nM)  percent inhibition of viability                 3.04
2  COc1ccc(-c2ccc3c(N4CCOC[C@@H]4C)nc(N4CCOC[C@@H]4C)nc3n2)cc1CO [AZD8055] (max concentration tested 10000 nM)  percent inhibition of viability                 30.4
3  COc1cc2ncnc(Oc3cccc(NC(=O)Nc4cc(C(C)(C)C(F)(F)F)on4)c3)c2cc1OC (max concentration tested 10000 nM)  percent inhibition of viability                 2.93
4  O=C(NOC[C@H](O)CO)c1ccc(F)c(F)c1Nc1ccc(I)cc1F (max concentration tested 1000 nM)  percent inhibition of viability                 40.9

Recorded percent inhibition of viability (compound Cc1c(Cn2c(C)nc3c(C(=O)O)cc(N4CCOCC4)cc32)cccc1C(F)(F)F (max concentration tested 10000 nM) ): 14.1

* * *

# Test system: normal NK cells expanded with K562-aAPC
# TEST: percent inhibition of viability; higher = more inhibition
# TEST CONDITIONS: 72 h; IL-2 2.5 ng/mL; 250 nM
PROPERTY LABEL: percent inhibition of viability (%)
Quick reminder: number only, in %, skip the unit.

# annotated cases, reported percent inhibition of viability shown
>>> df
                                   compound                   property_label  quantitative_result
0  Cc1cc(Nc2ncc(Cl)c(Nc3ccccc3S(=O)(=O)C(C)C)n2)c(OC(C)C)cc1C1CCNCC1 [Ceritinib] (max concentration tested 2500 nM)  percent inhibition of viability                -0.13
1  CCn1nnc2c(N3CCOCC3)nc(-c3ccc(NC(=O)Nc4ccc(C(=O)N5CCN(C)CC5)cc4)cc3)nc21 [PKI-402] (max concentration tested 2500 nM)  percent inhibition of viability                 11.4
2  CCCNC(=O)Nc1ccc(Oc2ncnc3cc(OC)c(OC)cc23)cc1Cl [KRN-633] (max concentration tested 2500 nM)  percent inhibition of viability                 2.74

Measured percent inhibition of viability, CCOc1cc2ncc(C#N)c(Nc3ccc(F)c(Cl)c3)c2cc1NC(=O)/C=C/CN(C)C [Pelitinib] (max concentration tested 2500 nM) : 36.6

# percent inhibition of viability of OCCn1cc(-c2cnc3nnn(Cc4ccc5ncccc5c4)c3n2)cn1 (max concentration tested 2500 nM) = 4.36

Record O=C(c1cccc(Cl)c1F)N1CCN(Cc2cccc(Nc3nccs3)n2)CC1 [MK-8745] (max concentration tested 2500 nM) , field percent inhibition of viability: 1.43

* * *

# System: NK-YS (IL-2 2.5 ng/mL)
# TEST: percent inhibition of viability; higher = more inhibition
# TEST CONDITIONS: 72 h; 1 nM
PROPERTY LABEL: percent inhibition of viability (%)
Entry rule: numbers only, all in %.

MOLECULE	PROPERTY LABEL	QUANTITATIVE RESULT
CCC/C=C/C=C/C(=O)O[C@H]1/C(=C/C(=O)OC)C[C@H]2C[C@H]([C@@H](C)O)OC(=O)C[C@H](O)C[C@@H]3C[C@H](OC(C)=O)C(C)(C)[C@](O)(C[C@@H]4C/C(=C/C(=O)OC)C[C@H](/C=C/C(C)(C)[C@]1(O)O2)O4)O3 [Bryostatin 1] (max concentration tested 100 nM)	percent inhibition of viability	-7.91

Read the next record carefully.
Lab note: measured percent inhibition of viability of O=C(NOCC1CC1)c1ccc(F)c(F)c1Nc1ccc(I)cc1Cl (max concentration tested 10000 nM) was 3.04

* * *

# Tested on: NKL (IL-2 2.5 ng/mL)
# TEST: percent inhibition of viability; higher = more inhibition
# TEST CONDITIONS: 72 h; 25 nM
percent inhibition of viability values for the compounds below.
Give the quantity in %, number only.

These recorded examples may help you get a feel for the data.
>>> df
                                   compound                   property_label  quantitative_result
0  COc1cc2nccc(Oc3ccc(NC(=O)NC4CC4)c(Cl)c3)c2cc1C(N)=O [Lenvatinib] (max concentration tested 2500 nM)  percent inhibition of viability                 2.51
1  CCOc1cc2ncc(C#N)c(Nc3ccc(F)c(Cl)c3)c2cc1NC(=O)/C=C/CN(C)C [Pelitinib] (max concentration tested 2500 nM)  percent inhibition of viability                -0.44
2  COc1cc(C(=O)NC2CCN(C)CC2)c(F)cc1Nc1ncc2c(n1)N(C1CCCC1)CC(F)(F)C(=O)N2C [TAK-960] (max concentration tested 2500 nM)  percent inhibition of viability                 0.04
3  O=C(c1cccc(Cl)c1F)N1CCN(Cc2cccc(Nc3nccs3)n2)CC1 [MK-8745] (max concentration tested 2500 nM)  percent inhibition of viability                -23.9

Read the next record carefully.
Form: compound = CCCNC(=O)Nc1ccc(Oc2ncnc3cc(OC)c(OC)cc23)cc1Cl [KRN-633] (max concentration tested 2500 nM) ; percent inhibition of viability = 11.4

* * *

// relative IC50 lookup, one value per entry
# Test system: normal primary NK cells, pool 3 (3 donors) (IL-2 2.5 ng/mL)
# TEST: relative IC50 (inflection point of fitted viability curve, relative to fitted max inhibition); higher = less sensitive
# TEST CONDITIONS: 72 h
Dear colleague, please return just the value in nM, with no unit written.

Would you please look over these solved cases?
MOLECULE	relative IC50 (nM)
CC(C)C[C@H](NC(=O)[C@H](CCc1ccccc1)NC(=O)CN1CCOCC1)C(=O)N[C@@H](Cc1ccccc1)C(=O)N[C@@H](CC(C)C)C(=O)[C@@]1(C)CO1 [Carfilzomib]	2.58
CC[C@@]1(O)C(=O)OCc2c1cc1n(c2=O)Cc2cc3c(CN(C)C)c(O)ccc3nc2-1 [Topotecan]	1030
CCNC(=O)c1noc(-c2cc(C(C)C)c(O)cc2O)c1-c1ccc(CN2CCOCC2)cc1 [Luminespib]	4.81

Let us move to another entry and its relative IC50.
response.value for CCOc1cc2ncc(C#N)c(Nc3ccc(F)c(Cl)c3)c2cc1NC(=O)/C=C/CN(C)C [Pelitinib] (field: relative IC50) = 429

* * *

# Tested on: NKL (IL-2 2.5 ng/mL)
# TEST: relative IC50 (inflection point of fitted viability curve, relative to fitted max inhibition); higher = less sensitive
# TEST CONDITIONS: 72 h
Each entry gets Not fulfilled if its relative IC50 stays under 300 nM, and Fulfilled if its relative IC50 is 300 nM or above.

>>> df
                                   compound            cat
0  Cn1cc(CNCC2CCN(c3ncc(C(=O)NO)cn3)CC2)c2ccccc21 [Quisinostat]  Not fulfilled

Pending compound:
Query block: Tell me whether relative IC50 is at least 300 nM here: CC[C@@H]1C(=O)N(C)c2cnc(Nc3ccc(C(=O)N[C@H]4CC[C@H](N5CCN(CC6CC6)CC5)CC4)cc3OC)nc2N1C(C)C [Volasertib]
Result block: Not fulfilled
